test system: KgpF; test: Prenylation of artificial cyclic peptides with 160 μM KgpF at 0° C., 20 hours (Conditions 13/14 and 19/20; Examples 10, 14, 19; Tables 6 and 18); format: biochemical, Microcystis aeruginosa; set-up: key: 5: strong intensity; 4: medium intensity; 3: weak intensity; 2: very weak intensity; 1: no peak; N/A: not observed; details: Table 18; Conditions 13 and 14 (160 μM KgpF, 0° C., 20 hours); NSGGVS added to C terminal
Sequence (as listed by the source): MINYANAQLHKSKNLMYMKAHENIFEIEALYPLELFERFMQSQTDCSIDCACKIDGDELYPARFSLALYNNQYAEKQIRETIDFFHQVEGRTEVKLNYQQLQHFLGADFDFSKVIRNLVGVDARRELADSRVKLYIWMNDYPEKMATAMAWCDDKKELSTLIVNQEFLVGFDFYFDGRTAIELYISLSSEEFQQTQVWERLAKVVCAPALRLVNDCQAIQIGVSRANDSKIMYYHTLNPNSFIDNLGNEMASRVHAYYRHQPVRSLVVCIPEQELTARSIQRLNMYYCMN
Positions of bridges follow the written chain, without caps; N, C: chain ends. Non-standard residues stand in square brackets, D forms with d. No end group written: not given here. *: point of attachment. prenyl = prenyl group added to Trp by KgpF, CC(C)=CC*
parameter.measured: Peak intensity, The number of prenyl groups added 0
Please respond with just the number, no unit label.

Which measured Peak intensity, The number of prenyl groups added 0 value corresponds to Met9: prenylated cyclic peptide identified by screening with MetAP1 as a target (Ac-[dY]KRKNCLVHVW(prenyl)HQCNSGGVS; thioether (positions not given here); not fully specified (C-terminus)) ?
1

Value lookup for Peak intensity, The number of prenyl groups added 0; key = Met12: prenylated cyclic peptide identified by screening with MetAP1 as a target ({CH2CO}-[dY]YIIW(prenyl)HRHRIMTVCNSGGVS; thioether N-14 (inferred); not fully specified (C-terminus); also: C-terminus linked to its mRNA (mRNA display))
3

Reported Peak intensity, The number of prenyl groups added 0 for Met3: prenylated cyclic peptide identified by screening with MetAP1 as a target (Ac-[dY]KRKAW(prenyl)ICQTAVYCNSGGVS; thioether (positions not given here); not fully specified (C-terminus)) : what is it?
2

I have this substance here, Met13: cyclic peptide SEQ ID NO: 364 identified by screening with MetAP1 as a target ({CH2CO}-[dY]VTWKGPYRWRVCNSG; thioether N-13 (inferred); not fully specified) , and I need its recorded Peak intensity, The number of prenyl groups added 0.
1

# query: Peak intensity, The number of prenyl groups added 0 of entry Met11: cyclic peptide SEQ ID NO: 363 identified by screening with MetAP1 as a target ({CH2CO}-[dY]HTDPFKAWHRRSCNSG; thioether N-14 (inferred); not fully specified)
1

* * *

For each entry below, report its MALDI-TOF-MS peak intensity, Number of additions 0 value.
test system: KgpF; test: Prenylation of artificial cyclic peptides with 160 μM KgpF at 0° C., 20 hours (Conditions 13/14 and 19/20; Examples 10, 14, 19; Tables 6 and 18); format: biochemical, Microcystis aeruginosa; set-up: key: 5: strong intensity; 4: medium intensity; 3: weak intensity; 2: very weak intensity; 1: no peak; N/A: not observed; conditions: Table 6; 160 μM KgpF, 2 mM DMAPP, 0° C., 20 hours; unmodified peptide peak
Non-standard residues stand in square brackets, D forms with d. No end group written: not given here.
// print number alone

Item Clone-M8: artificial cyclic peptide containing a plurality of Trps (Ac-[dY]THEWPWRTGWTRC; thioether (positions not given here); not fully specified (bridges)) has what recorded MALDI-TOF-MS peak intensity, Number of additions 0?
1

Consider the substance Clone-M5: artificial cyclic peptide containing a plurality of Trps (Ac-[dY]LWSKNSQPWPESC; thioether (positions not given here); not fully specified (bridges)) and give its measured MALDI-TOF-MS peak intensity, Number of additions 0.
3

Fill blank: measured MALDI-TOF-MS peak intensity, Number of additions 0 of the substance Clone-M3: artificial cyclic peptide containing a plurality of Trps (Ac-[dY]SWSPAWVRQADIC; thioether (positions not given here); not fully specified (bridges)) is ____.
1

Value lookup for MALDI-TOF-MS peak intensity, Number of additions 0; key = Clone-M6: artificial cyclic peptide containing a plurality of Trps (Ac-[dY]ILSQENHVWSLWC; thioether (positions not given here); not fully specified (bridges))
1

* * *

system: OltF v 2.1; test: Modification test of thioether-closed artificial cyclic peptides with 9.13 μM OltF v 2.1 (Example 16; Tables 11 and 12); type: biochemical, Planktothrix; parameters: key: 5: strong intensity; 4: medium intensity; 3: weak intensity; 2: very weak intensity; 1: no peak; N/A: not observed; settings: Table 11; OltF v 2.1 9.13 μM, DMAPP 2 mM, 37° C., 18 hours
Sequence (as listed by the source): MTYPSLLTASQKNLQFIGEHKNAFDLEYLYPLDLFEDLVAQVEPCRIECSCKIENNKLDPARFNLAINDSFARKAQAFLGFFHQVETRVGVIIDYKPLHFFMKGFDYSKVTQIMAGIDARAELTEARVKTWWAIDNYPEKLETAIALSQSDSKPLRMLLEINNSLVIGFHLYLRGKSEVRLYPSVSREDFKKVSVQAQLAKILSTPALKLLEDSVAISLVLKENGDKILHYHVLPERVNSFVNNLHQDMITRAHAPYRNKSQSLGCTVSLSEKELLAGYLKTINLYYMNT
Positions of bridges follow the written chain, without caps; N, C: chain ends. Non-standard residues stand in square brackets, D forms with d. No end group written: not given here.
Provide the recorded Peak intensity, The number of prenyl groups added 1 for the entries that follow.
Form: value (number only, do not type unit).

Sample YG288 ({CH2CO}-[dY]SNFRIWRYSNSSC; thioether N-14 (inferred)) — what was its Peak intensity, The number of prenyl groups added 1?
5

Fill blank: measured Peak intensity, The number of prenyl groups added 1 of the substance YG295 ({CH2CO}-[dY]ISWNEFNSPNWRFITC; thioether N-17 (inferred); not fully specified) is ____.
3

Recorded Peak intensity, The number of prenyl groups added 1 for YG297 ({CH2CO}-[dY]RQFNRRTHEVWNLDC; thioether N-16 (inferred)) , please?
4

Consider the substance YG292 ({CH2CO}-[dY]IRRPWVPIIYLGC; thioether N-14 (inferred)) and give its measured Peak intensity, The number of prenyl groups added 1.
5

Tell me the measured Peak intensity, The number of prenyl groups added 1 of YG299 (Ac-[dY]CDVSGRWGYFPC; thioether (positions not given here); not fully specified (bridges)) , please.
5

// Peak intensity, The number of prenyl groups added 1 lookup, key: YG296 ({CH2CO}-[dY]WYYAWDQTYKAFPC; thioether N-15 (inferred))
2

Find the recorded Peak intensity, The number of prenyl groups added 1 belonging to YG293 ({CH2CO}-[dY]TFRDVWIFYGSLLSRC; thioether N-17 (inferred)) and report it.
4

Look up Peak intensity, The number of prenyl groups added 1 for this substance: YG289 ({CH2CO}-[dY]HDYRIWRYHTYPC; thioether N-14 (inferred))
5

* * *

tested on: OltF v 2.1; assay: Modification test of thioether-closed artificial cyclic peptides with 9.13 μM OltF v 2.1 (Example 16; Tables 11 and 12); format: biochemical, Planktothrix; set-up: key: 5: strong intensity; 4: medium intensity; 3: weak intensity; 2: very weak intensity; 1: no peak; N/A: not observed; details: Table 11; OltF v 2.1 9.13 μM, DMAPP 2 mM, 37° C., 18 hours
Positions of bridges follow the written chain, without caps; N, C: chain ends. Non-standard residues stand in square brackets, D forms with d. No end group written: not given here.
Returns one of Met or Not met; Met when Peak intensity, The number of prenyl groups added 0 is >= 3.

Has YG288 ({CH2CO}-[dY]SNFRIWRYSNSSC; thioether N-14 (inferred)) a recorded Peak intensity, The number of prenyl groups added 0 greater than or equal to 3?
Not met

hey, is Peak intensity, The number of prenyl groups added 0 for this one >= 3? YG297 ({CH2CO}-[dY]RQFNRRTHEVWNLDC; thioether N-16 (inferred))
Met

Check the entry YG289 ({CH2CO}-[dY]HDYRIWRYHTYPC; thioether N-14 (inferred)) : does Peak intensity, The number of prenyl groups added 0 equal or exceed 3?
Not met

Please check the record YG292 ({CH2CO}-[dY]IRRPWVPIIYLGC; thioether N-14 (inferred)) and state if its Peak intensity, The number of prenyl groups added 0 is at or above 3.
Not met

Could you verify whether the entry YG295 ({CH2CO}-[dY]ISWNEFNSPNWRFITC; thioether N-17 (inferred); not fully specified) shows Peak intensity, The number of prenyl groups added 0 of no less than 3?
Met

* * *

tested on: KgpF; assay: Prenylation of artificial cyclic peptides with 160 μM KgpF at 0° C., 20 hours (Conditions 13/14 and 19/20; Examples 10, 14, 19; Tables 6 and 18); type: biochemical, Microcystis aeruginosa; parameters: key: 5: strong intensity; 4: medium intensity; 3: weak intensity; 2: very weak intensity; 1: no peak; N/A: not observed; conditions: Table 6; 160 μM KgpF, 2 mM DMAPP, 0° C., 20 hours; unmodified peptide peak
Non-standard residues stand in square brackets, D forms with d. No end group written: not given here.
Task for the reader: assign each of the following substances its reported MALDI-TOF-MS peak intensity, Number of additions 0.

Any idea what its MALDI-TOF-MS peak intensity, Number of additions 0 is? The substance is Clone-M4: artificial cyclic peptide containing a plurality of Trps (Ac-[dY]RVSNTWWQRHRWC; thioether (positions not given here); not fully specified (bridges))
1

Request the reported MALDI-TOF-MS peak intensity, Number of additions 0 associated with Clone-M1: artificial cyclic peptide containing a plurality of Trps ([dY]LRLNHTWSTWTSC; thioether (positions not given here); not fully specified (N-terminus, bridges); also: cyclic)
1

For the substance Clone-M2: artificial cyclic peptide containing a plurality of Trps (Ac-[dY]SAWHGKDNYDWFC; thioether (positions not given here); not fully specified (bridges)) , what MALDI-TOF-MS peak intensity, Number of additions 0 is on record?
1

The measurements presented in this section are drawn from patent US20220275534A1.
